target: recombinant human ALX receptor (Homo sapiens); construct: expressed in transfected cells; host or cells: HEK293 (HEK293-hALXR-Gα16); assay: Intracellular calcium measurements (FLIPR), ALX receptor agonistic activity; type: cell-based; conditions: HEK293-hALXR-Gα16 cells, Fluo-4 calcium signal, normalized to WKYMVm 10 nM
measurementKind: log10(EC50) (log10 of the value in nM)
Note: values are log10 of EC50 expressed in nM.

COc1ccc(C[C@@H](NC(=O)NC2(c3ccc(C)cc3)CC2)c2nc3ccccc3[nH]2)cc1: 1.91
N#Cc1ccc(CC(NC(=O)N[C@H]2CC[C@H](O)CC2)c2nc3ccccc3[nH]2)cc1 (relative stereo): 2.84
CC[C@@H](NC(=O)N[C@H](Cc1ccc(OC)cc1)c1nc2ccccc2[nH]1)c1ccccc1: 2.22
COc1ccc(CC(NC(=O)N[C@H]2CC[C@H](O)CC2)c2nc3cccnc3[nH]2)cc1 (relative stereo): 2.78
COc1ccc(C[C@@H](NC(=O)NCCN2CCN(C)CC2)c2nc3ccccc3[nH]2)cc1: 2.76

Now examine the next entry.
Fill in the blank: the reported log10(EC50) of "COc1ccc(C[C@@H](NC(=O)N[C@H]2CC[C@H](C(=O)OC)CC2)c2nc3ccccc3[nH]2)cc1" is ____. 0.91

---

target: recombinant human ALX receptor (Homo sapiens, UniProt P25090); experiment: Intracellular calcium measurements (FLIPR), ALX receptor agonistic activity; conditions: HEK293-hALXR-Gα16 cells, Fluo-4 calcium signal, normalized to WKYMVm 10 nM
measurementKind: EC50 (µM)
// note: answer is a bare numeric in µM

Record excerpt, results attached:
COc1ccc(C[C@@H](NC(=O)NC2(c3ccccc3Cl)CC2)c2nc3ccccc3[nH]2)cc1: 1.17
COc1ccc(CNC(=O)N[C@H](Cc2ccc(OC)cc2)c2nc3ccccc3[nH]2)cc1: 1.37

Fill in the blank: the reported EC50 of "COc1ccc(C[C@@H](NC(=O)N[C@@H]2CCNC2)c2nc3ccccc3[nH]2)cc1" is ____. 0.082

---

Molecular target: recombinant human ALX receptor (Homo sapiens)
Sequence (P25090 1-351): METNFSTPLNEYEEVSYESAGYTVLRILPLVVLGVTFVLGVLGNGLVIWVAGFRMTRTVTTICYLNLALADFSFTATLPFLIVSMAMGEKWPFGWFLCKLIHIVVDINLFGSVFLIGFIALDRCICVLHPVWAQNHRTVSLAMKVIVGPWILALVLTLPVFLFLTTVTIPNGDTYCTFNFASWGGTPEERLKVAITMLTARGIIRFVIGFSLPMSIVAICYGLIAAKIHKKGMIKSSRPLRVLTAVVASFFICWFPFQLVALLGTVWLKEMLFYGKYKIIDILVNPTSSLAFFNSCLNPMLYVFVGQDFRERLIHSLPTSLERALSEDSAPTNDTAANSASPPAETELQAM
Assay: Intracellular calcium measurements (FLIPR), ALX receptor agonistic activity
Conditions: HEK293-hALXR-Gα16 cells, Fluo-4 calcium signal, normalized to WKYMVm 10 nM
measurementKind: pEC50
pEC50 is a log-scale quantity: -log10 of the concentration expressed in molar.

CCOc1ccccc1CCNC(=O)N[C@H](Cc1ccc(OC)cc1)c1nc2ccccc2[nH]1 [Example 73]: 7.00
COc1ccc(C[C@@H](NC(=O)NCc2ccccc2CN(C)C)c2nc3ccccc3[nH]2)cc1 [Example 199]: 7.09

Now examine the next entry.
Fill in the blank: the reported pEC50 of COc1ccc(C[C@@H](NC(=O)N2CCN(C(=O)OC(C)(C)C)CC2)c2nc3ccccc3[nH]2)cc1 [Example 130] is ____. 5.98
